Sourced from patent US20210269525A1

- tgt: T1, Histidine-tagged human CD3e protein (human, UniProt P07766 23-126)
- T1 construct: also called hCD3e-His; not shown: His tag
- assay.details: SPR (Biacore), human CD3e
measured.parameter: Kd

binder="1B1-H2K2-IgG1-LALA (antibody, V domains shown, Humanized; human IgG1 with LALA mutations; also called H2K2 (humanized 1B1)) VH: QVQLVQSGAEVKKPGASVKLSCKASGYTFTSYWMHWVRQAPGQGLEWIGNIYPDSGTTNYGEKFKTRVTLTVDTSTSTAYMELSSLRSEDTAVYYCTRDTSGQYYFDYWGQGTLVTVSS VL: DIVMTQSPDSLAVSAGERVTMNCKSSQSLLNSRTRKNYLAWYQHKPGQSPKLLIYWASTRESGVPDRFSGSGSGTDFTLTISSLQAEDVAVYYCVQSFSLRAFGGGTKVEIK" value_observed="1.65 nM"
binder="1B1-H3K1-IgG1-LALA (antibody, V domains shown, Humanized; human IgG1 with LALA mutations; also called H3K1 (humanized 1B1)) VH: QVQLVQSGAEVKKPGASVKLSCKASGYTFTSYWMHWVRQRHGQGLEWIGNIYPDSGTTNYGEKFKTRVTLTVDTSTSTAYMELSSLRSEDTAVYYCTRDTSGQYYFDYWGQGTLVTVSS VL: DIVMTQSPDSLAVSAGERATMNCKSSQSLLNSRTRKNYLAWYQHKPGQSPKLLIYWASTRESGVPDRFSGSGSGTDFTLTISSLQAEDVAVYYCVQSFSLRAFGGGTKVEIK" value_observed="1.37 nM"
binder="1B1-H3K3-IgG1-LALA (antibody, V domains shown, Humanized; human IgG1 with LALA mutations; also called H3K3 (humanized 1B1)) VH: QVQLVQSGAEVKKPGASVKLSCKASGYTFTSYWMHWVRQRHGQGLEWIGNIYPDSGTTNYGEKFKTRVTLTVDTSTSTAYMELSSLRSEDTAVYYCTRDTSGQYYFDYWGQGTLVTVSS VL: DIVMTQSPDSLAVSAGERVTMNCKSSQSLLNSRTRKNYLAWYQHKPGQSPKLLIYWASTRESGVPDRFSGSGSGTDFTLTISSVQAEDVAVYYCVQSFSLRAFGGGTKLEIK" value_observed="0.718 nM"
binder="1B1-H4K2-IgG1-LALA (antibody, V domains shown, Humanized; human IgG1 with LALA mutations; also called H4K2 (humanized 1B1)) VH: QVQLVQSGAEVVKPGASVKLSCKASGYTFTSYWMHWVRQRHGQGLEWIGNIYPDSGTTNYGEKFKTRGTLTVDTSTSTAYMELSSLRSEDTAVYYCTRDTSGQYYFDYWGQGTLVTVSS VL: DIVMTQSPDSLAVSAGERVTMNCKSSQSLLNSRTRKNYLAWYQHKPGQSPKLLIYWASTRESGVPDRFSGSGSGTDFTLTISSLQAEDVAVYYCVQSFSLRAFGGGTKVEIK" value_observed="0.959 nM"
